Conditions: siRNA; also: test system not given here
HELM strings list units from the 5' end as sugar, base in round brackets, then linkage (d deoxyribose, r ribose, m 2'-O-methyl, p phosphodiester). Strings are as the collection lists them, not checked against the first reports. ss, as = sense and antisense strand; [lna] = locked nucleic acid (LNA); [fl2r] = 2'-fluoro
The substances listed here are annotated with their target mRNA knockdown.
Quick reminder: number only, in %, skip the unit.

## Input Would you kindly share the measured target mRNA knockdown for RNA1{r(C)p.r(U)p.r(U)p.r(A)p.r(C)p.r(G)p.r(C)p.r(U)p.r(G)p.r(A)p.r(G)p.r(U)p.r(A)p.r(C)p.r(U)p.r(U)p.r(C)p.r(G)p.r(A)p.r(T)p.r(T)}|RNA2{r(U)p.r(C)p.r(G)p.r(A)p.r(A)p.r(G)p.r(U)p.[lna](A)p.r(C)p.r(U)p.r(C)p.r(A)p.r(G)p.r(C)p.r(G)p.r(U)p.r(A)p.r(A)p.r(G)p.r(T)p.r(T)}$$$RNA1{StrandType:ss}|RNA2{StrandType:as}$ ?
## Output 86

Here is the next item to consider.
## Input # get_value(readout='target mRNA knockdown', item= RNA1{r(U)p.[fl2r](U)p.r(A)p.r(C)p.r(C)p.r(C)p.r(C)p.r(G)p.r(A)p.r(U)p.r(U)p.[fl2r](C)p.r(A)p.r(G)p.r(C)p.r(C)p.r(U)p.r(C)p.r(U)p.r(T)p.r(T)}|RNA2{r(A)p.r(G)p.r(A)p.r(G)p.r(G)p.r(C)p.[fl2r](U)p.r(G)p.r(A)p.r(A)p.r(U)p.r(C)p.r(G)p.r(G)p.r(G)p.r(G)p.[fl2r](U)p.r(A)p.r(A)p.r(T)p.r(T)}$$$RNA1{StrandType:ss}|RNA2{StrandType:as}$ )
## Output 82
